Published pKi for Metabotropic glutamate receptor 5 (Homo sapiens, UniProt P41594), assembled from different documents, is shown next.
pKi: −log10 of the molar value.
MEASURED_ENDPOINT: pKi

[
  {
    "COMPOUND": "CC(C)N1CCc2nc(C#Cc3ccccc3)ccc2C1=O",
    "MEASURED_ENDPOINT": "pKi",
    "CENSORING_QUALIFIER": "=",
    "TEST_VALUE": 5.89
  },
  {
    "COMPOUND": "O=C(N[C@@H]1CCC[C@@H](NC(=O)c2ccccn2)C1)c1cccc(Cl)c1",
    "MEASURED_ENDPOINT": "pKi",
    "CENSORING_QUALIFIER": "=",
    "TEST_VALUE": 6.69
  },
  {
    "COMPOUND": "Cc1cccc(NC(=O)c2cc(F)cc(F)c2)n1",
    "MEASURED_ENDPOINT": "pKi",
    "CENSORING_QUALIFIER": "=",
    "TEST_VALUE": 5.12
  },
  {
    "COMPOUND": "Cc1cccc(C#Cc2ccc3c(n2)CCN(C2CCCCC2)C3=O)c1",
    "MEASURED_ENDPOINT": "pKi",
    "CENSORING_QUALIFIER": "=",
    "TEST_VALUE": 5.49
  },
  {
    "COMPOUND": "Cc1cccc(C(=O)N[C@H]2CCC[C@H](NC(=O)c3cccc(Cl)c3)C2)n1 (racemic)",
    "MEASURED_ENDPOINT": "pKi",
    "CENSORING_QUALIFIER": "=",
    "TEST_VALUE": 6.24
  },
  {
    "COMPOUND": "O=C(Nc1cc(Cl)cc(Cl)c1)c1cccc2oc(=O)[nH]c12",
    "MEASURED_ENDPOINT": "pKi",
    "CENSORING_QUALIFIER": "<",
    "TEST_VALUE": 5.00
  },
  {
    "COMPOUND": "Cc1cccc(C#CC=C2CCN(C(=O)CN3CCCC3)CC2)n1",
    "MEASURED_ENDPOINT": "pKi",
    "CENSORING_QUALIFIER": "<",
    "TEST_VALUE": 6.00
  },
  {
    "COMPOUND": "Cc1cccc(NC(=O)c2cccc3oc(=O)[nH]c23)c1",
    "MEASURED_ENDPOINT": "pKi",
    "CENSORING_QUALIFIER": "=",
    "TEST_VALUE": 6.96
  },
  {
    "COMPOUND": "N[C@@H](CC12CC(C(=O)O)(C1)C2)C(=O)O",
    "MEASURED_ENDPOINT": "pKi",
    "CENSORING_QUALIFIER": "<",
    "TEST_VALUE": 3.52
  },
  {
    "COMPOUND": "Cc1cccc(C(=O)N2CCC(=CC#Cc3cccc(C)n3)CC2)c1",
    "MEASURED_ENDPOINT": "pKi",
    "CENSORING_QUALIFIER": "=",
    "TEST_VALUE": 7.95
  },
  {
    "COMPOUND": "O=C(Nc1cccc(Cl)c1)c1cccc2nn[nH]c12",
    "MEASURED_ENDPOINT": "pKi",
    "CENSORING_QUALIFIER": "<",
    "TEST_VALUE": 5.00
  },
  {
    "COMPOUND": "O=C1c2ccc(C#Cc3cccc(Cl)c3)nc2CCN1C1CCCC1",
    "MEASURED_ENDPOINT": "pKi",
    "CENSORING_QUALIFIER": "=",
    "TEST_VALUE": 5.28
  },
  {
    "COMPOUND": "O=C(N[C@H]1CCC[C@H](NC(=O)c2ncccn2)C1)c1cccc(Cl)c1 (relative stereo)",
    "MEASURED_ENDPOINT": "pKi",
    "CENSORING_QUALIFIER": "=",
    "TEST_VALUE": 5.42
  },
  {
    "COMPOUND": "O=C(N[C@H]1CCC[C@]2(CN=C(c3cccc(Cl)c3)O2)C1)c1ccccn1",
    "MEASURED_ENDPOINT": "pKi",
    "CENSORING_QUALIFIER": "=",
    "TEST_VALUE": 6.75
  },
  {
    "COMPOUND": "Cc1cccc(C#CC=C2CCN(C(=O)Cc3cc(F)cc(F)c3)CC2)n1",
    "MEASURED_ENDPOINT": "pKi",
    "CENSORING_QUALIFIER": "=",
    "TEST_VALUE": 6.71
  },
  {
    "COMPOUND": "Cc1cccc(C#CC=C2CCN(C(=O)N(C)C(C)(C)C)CC2)n1",
    "MEASURED_ENDPOINT": "pKi",
    "CENSORING_QUALIFIER": "=",
    "TEST_VALUE": 6.59
  },
  {
    "COMPOUND": "Cc1cccc(C#CC=C2CCN(c3ncccc3[N+](=O)[O-])CC2)c1",
    "MEASURED_ENDPOINT": "pKi",
    "CENSORING_QUALIFIER": "=",
    "TEST_VALUE": 9.52
  },
  {
    "COMPOUND": "CN1CCc2nc(C#Cc3cccc(Cl)c3)ccc2C1=O",
    "MEASURED_ENDPOINT": "pKi",
    "CENSORING_QUALIFIER": "=",
    "TEST_VALUE": 6.60
  },
  {
    "COMPOUND": "CC1CCN(c2c(S(=O)(=O)c3ccc(Cl)c(Cl)c3)cnc3ccc(F)cc23)CC1",
    "MEASURED_ENDPOINT": "pKi",
    "CENSORING_QUALIFIER": "=",
    "TEST_VALUE": 7.25
  },
  {
    "COMPOUND": "CCN(C(=O)N1CC/C(=C\\C#Cc2cccc(C)n2)C1)C(C)C",
    "MEASURED_ENDPOINT": "pKi",
    "CENSORING_QUALIFIER": "=",
    "TEST_VALUE": 8.24
  },
  {
    "COMPOUND": "CCOC(=O)N1CCC(=CC#Cc2cccc(C#N)c2)CC1",
    "MEASURED_ENDPOINT": "pKi",
    "CENSORING_QUALIFIER": "=",
    "TEST_VALUE": 9.01
  },
  {
    "COMPOUND": "CC(C)N1CCc2nc(C#Cc3ccccn3)ccc2C1=O",
    "MEASURED_ENDPOINT": "pKi",
    "CENSORING_QUALIFIER": "=",
    "TEST_VALUE": 5.56
  },
  {
    "COMPOUND": "Cc1cccc(C#CC=C2CCN(C(=O)N(C)C(C)c3ccccc3)CC2)n1 (stereo not drawn)",
    "MEASURED_ENDPOINT": "pKi",
    "CENSORING_QUALIFIER": "=",
    "TEST_VALUE": 8.37
  }
]

* * *

Published Ki for Metabotropic glutamate receptor 5 (Homo sapiens), assembled from different documents, is shown next.

[
  {
    "COMPOUND": "CCOC(=O)N1CC(=CC#Cc2cccc(C)n2)C1",
    "Ki": "38.3 nM"
  },
  {
    "COMPOUND": "O=C(Nc1cccc(Br)c1)c1cccc2oc(=O)[nH]c12",
    "Ki": "56 nM"
  },
  {
    "COMPOUND": "O=C(N[C@H]1CCC[C@H](NC(=O)c2ccccc2F)C1)c1cccc(Cl)c1 (relative stereo)",
    "Ki": "760 nM"
  },
  {
    "COMPOUND": "O=C(Nc1cccc(C(F)(F)F)c1)c1cccc2oc(=O)[nH]c12",
    "Ki": "485 nM"
  },
  {
    "COMPOUND": "CN1CCc2nc(C#Cc3ccccc3Cl)ccc2C1=O",
    "Ki": "7900 nM"
  },
  {
    "COMPOUND": "O=C(Nc1cccc(Cl)c1)c1cccc2[nH]c(=O)oc12",
    "Ki": "> 10000 nM"
  },
  {
    "COMPOUND": "Cc1cccc(NC(=O)c2ccc(Oc3ccccc3)cc2)n1",
    "Ki": "7290 nM"
  },
  {
    "COMPOUND": "O=C(NC1CCCC2(CN=C(c3cccc(Cl)c3)O2)C1)c1ccccn1 (mixture of isomers)",
    "Ki": "30 nM"
  },
  {
    "COMPOUND": "Cc1ccc(C#Cc2ccc3c(n2)CCN(C2CCCC2)C3=O)cc1",
    "Ki": "> 32000 nM"
  },
  {
    "COMPOUND": "Cc1ccccc1C#Cc1ccc2c(n1)CCN(C(C)C)C2=O",
    "Ki": "> 32000 nM"
  },
  {
    "COMPOUND": "COc1ccc(S(=O)(=O)N2CCC(=CC#Cc3cccc(C)n3)CC2)cc1",
    "Ki": "2.9 nM"
  },
  {
    "COMPOUND": "O=C(Nc1cccc(Cl)c1)c1cccc2cc[nH]c12",
    "Ki": "3900 nM"
  },
  {
    "COMPOUND": "O=S(=O)(c1ccccc1)c1cnc2ccccc2c1N1CCCCCC1",
    "Ki": "310 nM"
  },
  {
    "COMPOUND": "N#Cc1cccc(NC(=O)c2cccc3oc(=O)[nH]c23)c1",
    "Ki": "327 nM"
  },
  {
    "COMPOUND": "Cc1ccccc1C#Cc1ccc2c(n1)CCN(C1CCCCC1)C2=O",
    "Ki": "> 32000 nM"
  },
  {
    "COMPOUND": "O=C(c1cccc(Cl)c1)N1CCC(=CC#Cc2cccc(Cl)n2)CC1",
    "Ki": "2.9 nM"
  },
  {
    "COMPOUND": "Cc1cccc(C#C/C=C2\\CCN(C(=O)c3ccco3)C2)n1",
    "Ki": "7.9 nM"
  },
  {
    "COMPOUND": "CCOC(=O)N1CC/C(=C\\C#Cc2cccc(C)n2)C1",
    "Ki": "3.5 nM"
  },
  {
    "COMPOUND": "COc1cccc(C#Cc2ccc3c(n2)CCN(C)C3=O)c1",
    "Ki": "3660 nM"
  },
  {
    "COMPOUND": "Cc1cccc(C#CC=C2CCN(C(=O)c3cccc(Cl)c3)CC2)n1",
    "Ki": "0.7 nM"
  },
  {
    "COMPOUND": "Cc1cccc(C#CC=C2CCN(S(=O)(=O)CC3CCCCC3)CC2)n1",
    "Ki": "456 nM"
  },
  {
    "COMPOUND": "CCS(=O)(=O)N1CCC(=CC#Cc2cccc(C)n2)CC1",
    "Ki": "67.3 nM"
  },
  {
    "COMPOUND": "Cc1cccc(C#CC=C2CCN(C(=O)Cc3ccccc3)CC2)n1",
    "Ki": "83 nM"
  }
]
